tested on: Enterococcus spp.; assay: minimum inhibitory concentration (MIC); conditions: isolate (source animal id): 177
measure: minimum inhibitory concentration

INSERT INTO results (compound, target_entity, measure, observed_value) VALUES
  ('CN1C[C@@H]2C[C@H]1CN2c1cc2c(cc1F)c(=O)c(C(=O)O)cn2C1CC1 [Danofloxacin]', 'Enterococcus spp.', 'minimum inhibitory concentration', '> 1 mg/L'),
  ('NC[C@@H]1O[C@H](O[C@H]2[C@@H](O)[C@H](O[C@@H]3[C@@H](O)[C@H](N)C[C@H](N)[C@H]3O[C@H]3O[C@H](CN)[C@@H](O)[C@H](O)[C@H]3N)O[C@@H]2CO)[C@H](N)[C@@H](O)[C@@H]1O [Neomycin]', 'Enterococcus spp.', 'minimum inhibitory concentration', '32 mg/L'),
  ('CCN1CCN(c2cc3c(cc2F)c(=O)c(C(=O)O)cn3C2CC2)CC1 [Enrofloxacin]', 'Enterococcus spp.', 'minimum inhibitory concentration', '2 mg/L'),
  ('CC1(C)S[C@@H]2[C@H](NC(=O)Cc3ccccc3)C(=O)N2[C@H]1C(=O)O [Penicillin]', 'Enterococcus spp.', 'minimum inhibitory concentration', '2 mg/L'),
  ('CS(=O)(=O)c1ccc([C@@H](O)[C@@H](CF)NC(=O)C(Cl)Cl)cc1 [Florfenicol]', 'Enterococcus spp.', 'minimum inhibitory concentration', '4 mg/L'),
  ('CC[C@H]1OC(=O)C[C@@H](O)[C@H](C)[C@@H](O[C@@H]2O[C@H](C)[C@@H](O)[C@H](N(C)C)[C@H]2O)[C@@H](CCN2C[C@H](C)C[C@H](C)C2)C[C@@H](C)C(=O)/C=C/C(C)=C/[C@@H]1CO[C@@H]1O[C@H](C)[C@@H](O)[C@@H](OC)[C@H]1OC [Tilmicosin]', 'Enterococcus spp.', 'minimum inhibitory concentration', '16 mg/L'),
  ('CCCN1C[C@H](C)[C@@H](O)[C@](C)(O)[C@@H](CC)OC(=O)[C@H](C)[C@@H](O[C@H]2C[C@@](C)(OC)[C@@H](O)[C@H](C)O2)[C@H](C)[C@@H](O[C@@H]2O[C@H](C)C[C@H](N(C)C)[C@H]2O)[C@](C)(O)C[C@H]1C [Gamithromycin]', 'Enterococcus spp.', 'minimum inhibitory concentration', '≤ 1 mg/L'),
  ('CO/N=C(\C(=O)N[C@@H]1C(=O)N2C(C(=O)O)=C(CSC(=O)c3ccco3)CS[C@H]12)c1csc(N)n1 [Ceftiofur]', 'Enterococcus spp.', 'minimum inhibitory concentration', '> 8 mg/L');

---

tested on: Escherichia coli; assay: minimum inhibitory concentration (MIC); conditions: isolate (source animal id): 129
measure: minimum inhibitory concentration (µg/mL)

INSERT INTO results (structure_string, measure_unit, value_operator, observed_value) VALUES
  ('CN1C[C@@H]2C[C@H]1CN2c1cc2c(cc1F)c(=O)c(C(=O)O)cn2C1CC1', 'µg/mL', '=', 1),
  ('CCN1CCN(c2cc3c(cc2F)c(=O)c(C(=O)O)cn3C2CC2)CC1', 'µg/mL', '=', 1),
  ('COc1cc(Cc2cnc(N)nc2N)cc(OC)c1OC.Cc1cc(NS(=O)(=O)c2ccc(N)cc2)no1', 'µg/mL', '≤', 2),
  ('CCCN1C[C@H](C)[C@@H](O)[C@](C)(O)[C@@H](CC)OC(=O)[C@H](C)[C@@H](O[C@H]2C[C@@](C)(OC)[C@@H](O)[C@H](C)O2)[C@H](C)[C@@H](O[C@@H]2O[C@H](C)C[C@H](N(C)C)[C@H]2O)[C@](C)(O)C[C@H]1C', 'µg/mL', '=', 4),
  ('CC1(C)S[C@@H]2[C@H](NC(=O)Cc3ccccc3)C(=O)N2[C@H]1C(=O)O', 'µg/mL', '>', 8);

---

Attribute: minimum inhibitory concentration
test system: Histophilus somni; experiment: minimum inhibitory concentration (MIC); conditions: isolate (source animal id): 238
measure: minimum inhibitory concentration

INSERT INTO assay_data (structure_string, target_entity, measure, observed_value) VALUES
  ('NC[C@@H]1O[C@H](O[C@H]2[C@@H](O)[C@H](O[C@@H]3[C@@H](O)[C@H](N)C[C@H](N)[C@H]3O[C@H]3O[C@H](CN)[C@@H](O)[C@H](O)[C@H]3N)O[C@@H]2CO)[C@H](N)[C@@H](O)[C@@H]1O', 'Histophilus somni', 'minimum inhibitory concentration', '16 µg/mL'),
  ('CC1(C)S[C@@H]2[C@H](NC(=O)[C@H](N)c3ccccc3)C(=O)N2[C@H]1C(=O)O', 'Histophilus somni', 'minimum inhibitory concentration', '≤ 0.25 µg/mL'),
  ('CCN1CCN(c2cc3c(cc2F)c(=O)c(C(=O)O)cn3C2CC2)CC1', 'Histophilus somni', 'minimum inhibitory concentration', '≤ 0.12 µg/mL'),
  ('CN1C[C@@H]2C[C@H]1CN2c1cc2c(cc1F)c(=O)c(C(=O)O)cn2C1CC1', 'Histophilus somni', 'minimum inhibitory concentration', '≤ 0.12 µg/mL'),
  ('CCCN1C[C@H](C)[C@@H](O)[C@](C)(O)[C@@H](CC)OC(=O)[C@H](C)[C@@H](O[C@H]2C[C@@](C)(OC)[C@@H](O)[C@H](C)O2)[C@H](C)[C@@H](O[C@@H]2O[C@H](C)C[C@H](N(C)C)[C@H]2O)[C@](C)(O)C[C@H]1C', 'Histophilus somni', 'minimum inhibitory concentration', '≤ 1 µg/mL'),
  ('CN[C@@H]1[C@H](O)[C@H](NC)[C@H]2O[C@@]3(O)C(=O)C[C@@H](C)O[C@H]3O[C@@H]2[C@H]1O', 'Histophilus somni', 'minimum inhibitory concentration', '> 64 µg/mL');

---

system: Mannheimia haemolytica; experiment: minimum inhibitory concentration (MIC); conditions: isolate (source animal id): 138
Listing: minimum inhibitory concentration of selected compounds
measure: minimum inhibitory concentration

INSERT INTO measurements (structure_string, target_entity, observed_value) VALUES
  ('CC[C@H]1OC(=O)C[C@@H](O)[C@H](C)[C@@H](O[C@@H]2O[C@H](C)[C@@H](O)[C@H](N(C)C)[C@H]2O)[C@@H](CCN2CCCCC2)C[C@@H](C)C(=O)/C=C/C(C)=C/[C@@H]1CN1CCCCC1', 'Mannheimia haemolytica', '> 16 µg/mL'),
  ('CN1C[C@@H]2C[C@H]1CN2c1cc2c(cc1F)c(=O)c(C(=O)O)cn2C1CC1', 'Mannheimia haemolytica', '> 1 µg/mL'),
  ('COc1cc(Cc2cnc(N)nc2N)cc(OC)c1OC.Cc1cc(NS(=O)(=O)c2ccc(N)cc2)no1', 'Mannheimia haemolytica', '≤ 2 µg/mL'),
  ('NC[C@@H]1O[C@H](O[C@H]2[C@@H](O)[C@H](O[C@@H]3[C@@H](O)[C@H](N)C[C@H](N)[C@H]3O[C@H]3O[C@H](CN)[C@@H](O)[C@H](O)[C@H]3N)O[C@@H]2CO)[C@H](N)[C@@H](O)[C@@H]1O', 'Mannheimia haemolytica', '> 32 µg/mL');

---

system: Mannheimia haemolytica; assay: minimum inhibitory concentration (MIC); conditions: isolate (source animal id): 192
measure: minimum inhibitory concentration

INSERT INTO results (compound, observed_value) VALUES
  ('CCCN1C[C@H](C)[C@@H](O)[C@](C)(O)[C@@H](CC)OC(=O)[C@H](C)[C@@H](O[C@H]2C[C@@](C)(OC)[C@@H](O)[C@H](C)O2)[C@H](C)[C@@H](O[C@@H]2O[C@H](C)C[C@H](N(C)C)[C@H]2O)[C@](C)(O)C[C@H]1C', '≤ 1 µg/mL'),
  ('COc1cc(Cc2cnc(N)nc2N)cc(OC)c1OC.Cc1cc(NS(=O)(=O)c2ccc(N)cc2)no1', '≤ 2 µg/mL'),
  ('CO/N=C(\C(=O)N[C@@H]1C(=O)N2C(C(=O)O)=C(CSC(=O)c3ccco3)CS[C@H]12)c1csc(N)n1', '≤ 0.25 µg/mL'),
  ('CNC(C)C1CCC(N)C(OC2C(N)CC(N)C(OC3OCC(C)(O)C(NC)C3O)C2O)O1 (stereo not drawn)', '2 µg/mL'),
  ('NC[C@@H]1O[C@H](O[C@H]2[C@@H](O)[C@H](O[C@@H]3[C@@H](O)[C@H](N)C[C@H](N)[C@H]3O[C@H]3O[C@H](CN)[C@@H](O)[C@H](O)[C@H]3N)O[C@@H]2CO)[C@H](N)[C@@H](O)[C@@H]1O', '≤ 4 µg/mL'),
  ('CC1(C)S[C@@H]2[C@H](NC(=O)Cc3ccccc3)C(=O)N2[C@H]1C(=O)O', '0.25 µg/mL'),
  ('CCC[C@@H]1C[C@@H](C(=O)N[C@@H]([C@H]2O[C@H](SC)[C@H](O)[C@@H](O)[C@H]2O)[C@H](C)Cl)N(C)C1', '8 µg/mL'),
  ('CN1C[C@@H]2C[C@H]1CN2c1cc2c(cc1F)c(=O)c(C(=O)O)cn2C1CC1', '≤ 0.12 µg/mL');
